Parameter koff: see the listing below.
Biological target: T1, recombinant human PAD4 (human, UniProt Q9UM07 1-663)
T1 construct: also called rhPAD4; hPAD4
T1 sequence (Q9UM07 whole entry): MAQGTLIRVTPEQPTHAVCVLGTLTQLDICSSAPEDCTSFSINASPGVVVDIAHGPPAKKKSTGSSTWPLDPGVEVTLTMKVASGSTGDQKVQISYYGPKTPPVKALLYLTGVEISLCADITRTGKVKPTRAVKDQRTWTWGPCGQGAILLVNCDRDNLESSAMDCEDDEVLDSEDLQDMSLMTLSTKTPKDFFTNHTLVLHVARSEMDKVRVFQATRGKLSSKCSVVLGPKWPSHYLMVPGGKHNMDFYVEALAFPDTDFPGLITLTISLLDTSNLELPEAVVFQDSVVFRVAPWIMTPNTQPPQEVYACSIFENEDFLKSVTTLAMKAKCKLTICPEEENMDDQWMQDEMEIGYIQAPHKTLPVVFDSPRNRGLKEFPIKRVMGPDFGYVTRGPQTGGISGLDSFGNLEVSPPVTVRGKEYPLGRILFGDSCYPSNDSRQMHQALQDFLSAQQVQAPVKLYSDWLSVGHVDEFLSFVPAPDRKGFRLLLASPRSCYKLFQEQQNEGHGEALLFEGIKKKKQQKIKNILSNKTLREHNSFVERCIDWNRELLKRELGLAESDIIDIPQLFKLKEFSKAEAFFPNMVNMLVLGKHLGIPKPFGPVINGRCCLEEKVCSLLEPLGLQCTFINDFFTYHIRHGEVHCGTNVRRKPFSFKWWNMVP
Assay: SPR 37 C, captured antibody, PAD4 analyte, 1 mM CaCl2
metricName: koff (s⁻¹)

binder	measurement
hz13-4 (antibody, V domains shown, light constant region not tied to this antibody) VH: EVLLVQSGAEVKKPGASVKLSCTSSDFNIKDHFIHWVRQAPGKGLEWMGRIDPEDDETKYAPKFQDRVTMTADTSTDTAYMELSSLRSEDTAVFYCAGYGNYEGAMDYWGQGTLVTVSS VL: DIQMTQSPSSLSASVGDRVTITCRASENVNNYGIGFMNWYQQKPGKAPKLLIYAASRRGSGVPSRFSGSGSGTDFTLTISSLQPEDFATYYCQQSKEVPYTFGQGTKVEIK	0.00013
hz20-2 (antibody, IgG1, V domains shown, also called clone 20-based hz20-2 antibody) VH: QVQLVQSGAEVKKPGASVKVSCKASGYTFTNYGISWVRQAPGQGLEWMGEIYPRSGNTYHNEKFKDRVTMTTDTSTSTAYMELRSLRSDDTAVYYCARSMITTRYWYFDVWGQGTLVTVSS VL: DIQMTQSPSSLSASVGDRVTITCRASESVDTYGNSFMHWYQQKPGKAPKLLIYLASNLESGVPSRFSGSGSGTDFTLTISSLQPEDFATYYCQQNNEDPLTFGQGTKVEIK	0.00029
hz20-1 (antibody, V domains shown, light constant region not tied to this antibody) VH: QVQLVQSGAEVKKPGASVKVSCKASGYTFTNYGISWVRQAPGQGLEWMGEIYPRSGNTYHNEKFKDRVTMTRDTSTSTVYMELSSLRSEDTAVYYCARSMITTRYWYFDVWGKGTTVTVSS VL: DIVMTQSPDSLAVSLGERATINCRASESVDTYGNSFMHWYQQKPGQPPKLLIYLASNLESGVPDRFSGSGSGTDFTLTISSLQAEDVAVYYCQQNNEDPLTFGAGTKLELK	0.00089
